Assay: cytotoxicity in HPDE-C7 cells, cell-based, fluorescence, HTS (AID 430);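 further: cells exposed to compound for 48 hours before viability readout; 0% = vehicle and 100% = reference cytotoxic drug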
Details: HPDE-C7 pancreatic duct cells viability, at 10 µM
About 1,100 (1.7%) of roughly 63,000 compounds were called active. No stated cut-off is given here; in the data, active means cytotoxicity above about 50%; inactive means the rest. The entries come from a sample that favours actives as a whole. Potency and affinity values are given separately.
Outcomes: 1.0 (active), 0.0 (inactive)

>  <compound>
CC(=O)c1cccc(S(=O)(=O)N(CCCO)Cc2cc3ccc(C)cc3[nH]c2=O)c1

>  <group>
0.0

$$$$
>  <compound>
COC(=O)c1ccc(CSc2nnc(Nc3ccccc3OC)s2)o1

>  <group>
0.0

$$$$
>  <compound>
CCCS(=O)(=O)c1c(S(=O)(=O)CCC)c2ccccn2c1C(=O)OC

>  <group>
0.0

$$$$
>  <compound>
CCOc1ccccc1Nc1nnc(SCc2ccc(C(=O)OC)o2)s1

>  <group>
1.0

$$$$
>  <compound>
O=c1c2ccccc2nc(SCc2nnc(-c3ccccc3Br)o2)n1Cc1ccco1

>  <group>
0.0

$$$$
>  <compound>
CCn1c(-c2c[nH]c3ccccc23)n[nH]c1=S

>  <group>
0.0

$$$$
>  <compound>
COc1cccc(C(=O)N(CN2CCCC2=O)c2ccccc2OC)c1

>  <group>
0.0

$$$$
>  <compound>
Cc1ccccc1NC(=O)C1CCCN(S(=O)(=O)c2cnc[nH]2)C1 (stereo unspecified)

>  <group>
0.0

$$$$
>  <compound>
CCSc1nnc(NC(=O)CSc2nccn2-c2cc(C)cc(C)c2)s1

>  <group>
0.0

$$$$
>  <compound>
Clc1cc(Cl)c2nc(N3CCCCC3)sc2c1

>  <group>
0.0

$$$$
>  <compound>
COc1ccc(N2CCN(C(=O)c3cc4c(-c5cccc(OC)c5)nn(C)c4s3)CC2)cc1

>  <group>
0.0

$$$$

====

Assay: cytotoxicity in HPDE-C7 cells, cell-based, fluorescence, HTS (AID 430);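 further: cells exposed to compound for 48 hours before viability readout; 0% = vehicle and 100% = reference cytotoxic drug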
Details: HPDE-C7 pancreatic duct cells viability, at 10 µM, stronger effect = higher value
The campaign covered roughly 63,000 compounds. About 1,100 (1.7%) were called active. This excerpt belongs to a sample that is enriched for actives. Entries with a potency or affinity are not part of this list.
Reported cytotoxicity values for a set of compounds
parameter-measured: cytotoxicity (%)

>  <compound>
Cc1cc(C)c2ccc(N)nc2c1O

>  <observed>
111

$$$$
>  <compound>
CC1CC(C)CN(c2oc(-c3ccccc3Cl)nc2C#N)C1 (configuration not stated)

>  <observed>
2.5

$$$$
>  <compound>
CCC(=O)Nc1nonc1-c1nc2ccccc2n1CC(C)C

>  <observed>
25.7

$$$$
>  <compound>
CCCCn1c(-c2nonc2NC(=O)c2ccccc2Cl)nc2ccccc21

>  <observed>
69.4

$$$$
>  <compound>
CCC(=O)Nc1nonc1-c1nc2ccccc2n1Cc1ccccc1

>  <observed>
6.6

$$$$
>  <compound>
CCC(=O)Nc1nonc1-c1nc2ccccc2n1N(C(=O)CC)C(=O)CC

>  <observed>
54.2

$$$$
>  <compound>
Cc1cc(C)c2ccc(C)[n+]([O-])c2c1O

>  <observed>
-4.9

$$$$
>  <compound>
N#CCCn1c(-c2nonc2NC(=O)c2ccccc2Cl)nc2ccccc21

>  <observed>
41.9

$$$$
>  <compound>
CCOc1cc(C2C(C#N)=C(N)Oc3n[nH]c(CC)c32)ccc1OCCN1CCOCC1 (configuration not stated)

>  <observed>
-1.8

$$$$
>  <compound>
Cc1[nH]nc2c1C1(CCN(Cc3ccccc3)CC1)C(C#N)=C(N)O2

>  <observed>
-9.5

$$$$
>  <compound>
COc1ccc(C(=O)OC(C)CN2CCOCC2)cc1OC (configuration not stated)

>  <observed>
-1.4

$$$$
>  <compound>
C=CCn1c(O)c(C(CC)=NCc2cccnc2)c(=O)[nH]c1=O

>  <observed>
-2.2

$$$$
